Where do the numbers come from? From ChEMBL document CHEMBL1143218.

pIC50: −log10 of the molar value.
# Sodium-dependent dopamine transporter (Homo sapiens, UniProt Q01959): pIC50 values follow
# Sequence (Q01959 whole entry): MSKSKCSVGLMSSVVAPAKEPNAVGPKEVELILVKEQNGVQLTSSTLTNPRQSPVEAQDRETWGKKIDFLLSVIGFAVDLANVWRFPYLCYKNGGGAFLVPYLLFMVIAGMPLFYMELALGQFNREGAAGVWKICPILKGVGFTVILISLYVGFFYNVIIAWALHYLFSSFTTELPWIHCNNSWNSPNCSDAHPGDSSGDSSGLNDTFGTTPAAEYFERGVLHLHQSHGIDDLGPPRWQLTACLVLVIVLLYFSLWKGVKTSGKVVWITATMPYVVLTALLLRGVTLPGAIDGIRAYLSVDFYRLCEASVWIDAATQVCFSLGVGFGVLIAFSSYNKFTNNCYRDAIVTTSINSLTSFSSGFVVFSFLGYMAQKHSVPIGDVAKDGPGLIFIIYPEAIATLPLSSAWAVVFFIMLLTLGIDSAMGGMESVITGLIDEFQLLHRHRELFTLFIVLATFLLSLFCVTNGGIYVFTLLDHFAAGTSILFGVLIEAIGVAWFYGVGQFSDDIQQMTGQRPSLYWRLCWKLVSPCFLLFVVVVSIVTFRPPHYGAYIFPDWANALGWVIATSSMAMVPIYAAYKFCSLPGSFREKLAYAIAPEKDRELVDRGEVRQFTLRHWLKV

molecule: CCN(CC)C(=O)C1(c2ccccc2)CC1CNCc1ccccn1 (racemic)
pIC50: 5.21
--
molecule: NCC1CC1(C(=O)NC1CC1)c1ccccc1 (racemic)
pIC50: < 5.00
--
molecule: NCC1CC1(C(=O)NCc1ccccc1)c1ccccc1 (racemic)
pIC50: < 5.00
--
molecule: CCN(C(=O)C1(c2ccccc2)CC1CN)C(C)(C)C (racemic)
pIC50: < 5.00
--
molecule: CCNC(=O)[C@@]1(c2ccccc2)CC1CN (mixture of isomers)
pIC50: < 5.00
--
molecule: NCC1CC1(C(=O)N1CCc2ccccc21)c1ccccc1 (racemic)
pIC50: 5.41
--
molecule: NCC1CC1(C(=O)N1CCCCCC1)c1ccccc1 (racemic)
pIC50: < 5.00
--
molecule: CCNCC1CC1(C(=O)N(CC)CC)c1ccccc1 (racemic)
pIC50: < 5.00
--
molecule: CCN(CC)C(=O)C1(c2ccccc2)CC1CN(C)C (racemic)
pIC50: 5.35
--
molecule: CCN(CC)C(=O)C1(c2ccccc2)CC1CNCc1ncco1 (racemic)
pIC50: < 5.00
--
molecule: CCN(C)C(=O)C1(c2ccccc2)CC1CN (racemic)
pIC50: 5.62
--
molecule: NCC1CC1(C(=O)N1CCCc2ccccc21)c1ccccc1 (racemic)
pIC50: < 5.00
--
molecule: CC(C)N(C(=O)[C@@]1(c2ccccc2)CC1CN)C(C)C (mixture of isomers)
pIC50: < 5.00
--
molecule: CCN(CC)C(=O)C1(c2ccccc2)CC1CNCc1ccco1 (racemic)
pIC50: < 5.00
--
molecule: CCN(CC)C(=O)C1(c2ccccc2)CC1CNCC(C)C (racemic)
pIC50: < 5.00
--
molecule: CCN(CC)C(=O)[C@@]1(c2ccccc2)CC1CNC (mixture of isomers)
pIC50: < 5.00
--
molecule: NCC1CC1(C(=O)Nc1ccccc1)c1ccccc1 (racemic)
pIC50: < 5.00
--
molecule: CCCN(CC)C(=O)C1(c2ccccc2)CC1CN (racemic)
pIC50: < 5.00
--
molecule: CCN(CC)C(=O)C1(c2ccccc2)CC1CNCc1cnco1 (racemic)
pIC50: < 5.00
--
molecule: NCC1CC1(C(=O)C1NCCc2ccccc21)c1ccccc1 (racemic)
pIC50: < 5.00
--
molecule: CCCCN(CC)C(=O)C1(c2ccccc2)CC1CN (racemic)
pIC50: < 5.00
--
molecule: CCN(C(=O)C1(c2ccccc2)CC1CN)C1CCCCC1 (racemic)
pIC50: < 5.00
--
molecule: CCN(CC)C(=O)C1(c2ccccc2)CC1CNCc1cccnc1 (racemic)
pIC50: < 5.00
--
molecule: CCN(CC)C(=O)C1(c2ccccc2)CC1CNCc1ccncc1 (racemic)
pIC50: < 5.00
